Source listed as patent US9006177B2.

# tgt: Human A2A adenosine receptor (Homo sapiens, UniProt P29274)
# Sequence (P29274 whole entry): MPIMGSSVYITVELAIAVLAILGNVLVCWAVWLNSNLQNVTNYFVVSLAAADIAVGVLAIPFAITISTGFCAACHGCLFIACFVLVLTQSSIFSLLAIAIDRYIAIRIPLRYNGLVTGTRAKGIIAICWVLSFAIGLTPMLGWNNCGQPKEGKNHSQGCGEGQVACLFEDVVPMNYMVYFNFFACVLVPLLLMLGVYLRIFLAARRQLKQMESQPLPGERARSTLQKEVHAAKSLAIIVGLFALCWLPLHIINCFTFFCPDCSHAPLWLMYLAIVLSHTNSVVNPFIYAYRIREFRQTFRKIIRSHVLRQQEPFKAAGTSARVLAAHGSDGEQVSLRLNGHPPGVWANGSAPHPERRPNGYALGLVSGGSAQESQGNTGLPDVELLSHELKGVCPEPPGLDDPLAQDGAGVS
# assay_info: Radioligand binding for A2A adenosine receptor ([3H]-ZM-241385 competition, HEK-A2A membranes)
# measurement_context: HEK-293 membranes, 2 nM [3H]-ZM-241385, read-out: A2A Cell based Functional Ki*
pKi: −log10 of the molar value.
quantity_kind: pKi

Use these answered entries as a reference point.
Cn1c(=O)n(CCN2CCN(C(=O)CC3CC3)CC2)c2nc(N)n3nc(-c4nccs4)nc3c21 | 7.00 to 8.00
Cn1c(=O)n(CCN2CCN(c3ccc(C(C)(C)O)cc3)CC2)c2nc(N)n3nc(-c4ccco4)nc3c21 | 8.00 to 10.00
Cc1ccc(N2CCN(CCn3c(=O)n(C)c4c3nc(N)n3nc(-c5ccco5)nc43)CC2)cc1 | 8.00 to 10.00
Cc1cnc2c(c1)CN(CCn1c(=O)n(C)c3c1nc(N)n1nc(-c4nccs4)nc31)CC2 | 8.00 to 10.00

Reported pKi for CCn1c(=O)n(CCn2cc(-c3ccc(F)cc3F)cn2)c2nc(N)n3nc(-c4ccco4)nc3c21 was 8.00 to 10.00

Lab note: Cc1cnc2c(c1)CN(CCn1c(=O)n(C)c3c1nc(N)n1nc(-c4ccco4)nc31)CC2 gave pKi of 8.00 to 10.00
